Reference source for all entries: the supplement of paper PMC6279402

system: A549; assay: relative viability (normalised to negative control = 1, bortezomib = 0) (fraction); higher = less cytotoxic; details: inflammatory serum-free RHB-A with cytokines + LPS; 5 d + 24 h CellTiter-Blue; compound 30 nM; GSK126 pretreatment: none (vehicle)

| Compound | relative viability |
| --- | --- |
| Clc1ccc(C(c2ccccc2Cl)C(Cl)Cl)cc1 (centres undefined) | 0.804 |
| CNC(=O)c1c(F)cccc1Nc1nc(Nc2cc3c(cc2OC)CCN3C(=O)CN(C)C)nc2[nH]ccc12 | 0.792 |
| COc1cccc2cc(-c3nc(C4CCC(C(=O)O)CC4)n4ncnc(N)c34)[nH]c12 (centres undefined) | 0.797 |
| O=c1cc(N2CCOCC2)oc2c(-c3ccccc3)cccc12 | 0.819 |
